# Experimental target: humanP2X7 (Homo sapiens)
# Sequence (Q99572 whole entry): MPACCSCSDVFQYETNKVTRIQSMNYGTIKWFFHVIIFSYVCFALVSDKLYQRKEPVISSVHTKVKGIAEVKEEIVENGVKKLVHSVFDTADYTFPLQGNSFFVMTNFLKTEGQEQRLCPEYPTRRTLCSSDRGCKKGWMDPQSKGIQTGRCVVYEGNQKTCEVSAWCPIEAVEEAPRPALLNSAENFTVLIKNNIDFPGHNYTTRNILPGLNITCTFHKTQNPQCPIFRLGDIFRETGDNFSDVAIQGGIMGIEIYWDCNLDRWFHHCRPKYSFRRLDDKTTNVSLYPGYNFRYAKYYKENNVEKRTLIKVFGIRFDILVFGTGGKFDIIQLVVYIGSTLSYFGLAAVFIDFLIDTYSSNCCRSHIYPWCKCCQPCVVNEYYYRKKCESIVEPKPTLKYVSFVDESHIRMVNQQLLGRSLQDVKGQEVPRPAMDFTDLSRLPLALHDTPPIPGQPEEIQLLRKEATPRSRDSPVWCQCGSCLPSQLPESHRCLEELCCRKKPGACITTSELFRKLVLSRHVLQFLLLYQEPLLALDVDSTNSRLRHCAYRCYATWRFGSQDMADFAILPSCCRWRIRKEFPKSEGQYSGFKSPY
# Assay info: P2X7 channel calcium-influx assay (Fluo-8, FLIPR TETRA), human P2X7
# Protocol conditions: HEK-293 cells stably transfected with P2X7; Bz-ATP at EC80; low divalent cation buffer; read-out: humanP2X7 (activity range)
pIC50: −log10 of the molar value.
Readout: pIC50

[[record]]
molecule = "CN1CCCCC1Cn1c(Cc2c(F)cccc2Cl)nn(CC(F)(F)F)c1=O (centres unmarked)"
readout = "pIC50"
result_value = "5.00 to 6.00"


Record Cn1nc(Cc2c(F)cccc2Cl)n(CCC2CCC(C)(C)CC2)c1=O . Reported pIC50: 6.00 to 6.70

Record Cn1nc(Cc2ccccc2C(F)(F)F)n(CC2CCC3(CC2)CC3)c1=O . Reported pIC50: 6.00 to 6.70

Record O=c1n(CC(F)(F)F)nc(Cc2ccccc2Cl)n1CC1CCC(F)(F)CC1 . Reported pIC50: > 6.70

Record O=c1n(CC2CC2)nc(Cc2c(F)cccc2Cl)n1CC1CCC(F)(F)C1 (centres unmarked) . Reported pIC50: 6.00 to 6.70

* * *

# Experimental target: ratP2X7 (Rattus norvegicus, UniProt Q64663)
# Sequence (Q64663 whole entry): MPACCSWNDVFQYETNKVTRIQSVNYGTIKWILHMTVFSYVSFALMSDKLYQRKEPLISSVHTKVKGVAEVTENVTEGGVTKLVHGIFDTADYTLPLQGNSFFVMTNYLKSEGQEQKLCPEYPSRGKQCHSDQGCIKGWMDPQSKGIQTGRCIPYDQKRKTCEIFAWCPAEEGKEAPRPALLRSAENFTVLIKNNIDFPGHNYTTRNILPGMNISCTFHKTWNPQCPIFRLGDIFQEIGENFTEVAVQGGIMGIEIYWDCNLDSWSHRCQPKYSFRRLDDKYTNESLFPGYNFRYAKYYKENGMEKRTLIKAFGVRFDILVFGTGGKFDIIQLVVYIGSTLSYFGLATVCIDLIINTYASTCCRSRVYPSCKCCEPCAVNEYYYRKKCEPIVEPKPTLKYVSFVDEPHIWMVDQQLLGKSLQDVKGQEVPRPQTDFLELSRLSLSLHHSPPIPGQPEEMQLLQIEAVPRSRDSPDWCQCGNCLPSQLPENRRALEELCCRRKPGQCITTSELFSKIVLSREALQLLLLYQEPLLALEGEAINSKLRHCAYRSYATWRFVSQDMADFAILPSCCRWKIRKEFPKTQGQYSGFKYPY
# Assay info: P2X7 channel calcium-influx assay (Fluo-8, FLIPR TETRA), rat P2X7
# Protocol conditions: HEK-293 cells stably transfected with P2X7; Bz-ATP at EC80; low divalent cation buffer; read-out: ratP2X7 (activity range)
Readout: IC50

[[record]]
compound = "Cn1nc(Cc2ccccc2F)n(CCC2CCC(C)(C)CC2)c1=O"
readout = "IC50"
result_value = "1000 to 10000 nM"

[[record]]
compound = "CN1CCCCC1Cn1c(Cc2c(F)cccc2Cl)nn(CC(F)(F)F)c1=O (centres unmarked)"
readout = "IC50"
result_value = "200 to 1000 nM"

[[record]]
compound = "CCn1nc(Cc2ccccc2Cl)n(CC2CCCCCC2)c1=O"
readout = "IC50"
result_value = "< 200 nM"

[[record]]
compound = "O=c1n(CC(F)(F)F)nc(Cc2ccccc2Cl)n1CC1CCC(F)(F)CC1"
readout = "IC50"
result_value = "< 200 nM"

[[record]]
compound = "Cn1nc(Cc2ccc(F)cc2Cl)n(CC2CCCCCC2)c1=O"
readout = "IC50"
result_value = "< 200 nM"


Record CN1CCCCC1Cn1c(Cc2c(F)cccc2Cl)nn(C)c1=O (centres unmarked) . Reported IC50: 1000 to 10000 nM

Record Cn1nc(Cc2c(F)cccc2Cl)n(CC2CCC(F)(F)CC2)c1=O . Reported IC50: < 200 nM

Record Cn1nc(CC2CCCCCC2)n(Cc2c(F)cccc2Cl)c1=O . Reported IC50: < 200 nM

Record Cc1ncccc1Cn1c(CC2CCCCC2)nn(C)c1=O . Reported IC50: 1000 to 10000 nM

Record Cn1nc(Cc2ccccc2Cl)n(CC2CCCCCC2)c1=O . Reported IC50: < 200 nM

Record Cn1nc(Cc2ccccc2C(F)(F)F)n(CC2CCC(F)(F)CC2)c1=O . Reported IC50: < 200 nM

Record Cn1nc(Cc2ccccc2C(F)(F)F)n(CC2CCC(F)(F)C2)c1=O (centres unmarked) . Reported IC50: 200 to 1000 nM

Record Cn1nc(Cc2c(F)cccc2Cl)n(CC2CCCCC2)c1=O . Reported IC50: < 200 nM

Record Cn1nc(Cc2c(F)cccc2Cl)n(CC2CCCO2)c1=O (centres unmarked) . Reported IC50: 10000 to 30000 nM

Record Cn1nc(Cc2ccc(F)cc2Cl)n(CC2CCCCC2)c1=O . Reported IC50: < 200 nM

Record Cn1nc(CC2CCCCC2)n(Cc2ccccc2C(F)(F)F)c1=O . Reported IC50: 1000 to 10000 nM

Record Cn1nc(Cc2c(F)cccc2Cl)n(CC2CCCCCC2)c1=O . Reported IC50: < 200 nM

Record Cn1nc(Cc2c(F)cccc2Cl)n(CC2CCC(F)CC2)c1=O (centres unmarked) . Reported IC50: < 200 nM

Record CCn1nc(Cc2c(F)cccc2Cl)n(CC2CCC(F)(F)C2)c1=O (centres unmarked) . Reported IC50: 200 to 1000 nM

Record Cn1nc(Cc2ccccc2C(F)(F)F)n(CC2CCCCCC2)c1=O . Reported IC50: < 200 nM
